Source: patent US12686699B2

method: Solubility in biorelevant media (shake-flask)
Assay type: physicochemical
measurement-setup: 37 °C, pH 1.6, fassgf or other biorelevant, thermodynamic from solid, FaSSGF (pH 1.6), 1 hour, read-out: SOLUBILITY
quantity-kind: SOLUBILITY (µg/mL)
Answers are plain numbers, in µg/mL.

-- ask Entry CC(C)[C@@H](CC[C@@H](C)[C@H]1CC[C@H]2[C@@H]3[C@H](O)C[C@H]4C[C@@H](NCCCNCCCCN)CC[C@]4(C)[C@H]3CC[C@]12C)OS(=O)(=O)O.O=P(O)(O)O [Form A1, squalamine phosphate] : reported SOLUBILITY = ?
-- reply 9000
